# target under test: BTK-1h (Homo sapiens, UniProt Q06187)
# Construct: The BTK kinase domain was diluted to 2 μM in the buffer, and 2 μM 1h was added; made in house
# Sequence (Q06187 402-655): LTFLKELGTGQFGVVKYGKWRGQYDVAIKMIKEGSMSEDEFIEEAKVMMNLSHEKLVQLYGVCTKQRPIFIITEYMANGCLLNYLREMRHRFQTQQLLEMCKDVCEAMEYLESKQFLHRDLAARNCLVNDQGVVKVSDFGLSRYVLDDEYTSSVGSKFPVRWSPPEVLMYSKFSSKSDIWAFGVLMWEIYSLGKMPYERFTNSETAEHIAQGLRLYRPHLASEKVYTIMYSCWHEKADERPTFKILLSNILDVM
# experiment description: High-throughput screening with 1h-labeled BTK
# Assay type: binding
# reported conditions: Dataset S2A; 200 μM compound, BTK-1h, 32 °C, 10 min
endpoint name: FI (650)/FI (620)
Number only, please.

The following compounds have reported results that may help.
>>> experimental_result("C#CC[C@H](c1nc2cc(Cl)ccc2c(=O)n1Nc1ccccc1)N(CCCN)C(=O)c1cccc(Cl)c1F [PCM-0095802-002]")
1.024
>>> experimental_result("Cc1nc(N)sc1-c1ccnc(Nc2ccc(N3CCOCC3)cc2)n1 [PCM-0095025-002]")
1.274
>>> experimental_result("C=CC(=O)Nc1cccc(Oc2nc(Nc3ccc(N4CCN(C)CC4)cc3OC)ncc2Cl)c1 [PCM-0095043-002]")
0.9704
>>> experimental_result("COC(=O)C1=C(C)NC(C)=C(C(=O)OCCN2CCN(C(c3ccccc3)c3ccccc3)CC2)C1c1cccc([N+](=O)[O-])c1.Cl.Cl (centres unmarked) [PCM-0090281-005]")
1.357
>>> experimental_result("CCCCCCCCCCCCc1ccc(S(=O)(=O)Nc2nncs2)cc1 [PCM-0095111-002]")
1.107
>>> experimental_result("O=C1CC(=O)c2c(Cl)c(Cl)c(Cl)c(Cl)c21 [PCM-0215201-001, TCID]")
25.7359

Exercise: Quick one: FI (650)/FI (620) of O=S(=O)([O-])c1ccc2cc(N=Nc3cc(S(=O)(=O)[O-])c4cccnc4c3O)ccc2c1.[Na+].[Na+] [PCM-0215685-001] ?
Key: 1.281
